measurement.description: reduction of polyQ htt aggregates in cells – imaging, exon1htt(103Q)mCFP cells, high-content imaging, primary screen (AID 483);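 further: compound exposure lasted 3 days before fixation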
condition.set: exon1htt(103Q)mCFP cell line, aggregate imaging, at 2 µM; active compounds read high
test.readout: inhibition of aggregation (%)
Provide only the numeric value, understood in %.

inhibition of aggregation recorded for this compound, `COC(=O)c1nn(-c2ccc(-c3ccccc3)cc2)cc1O` , is 14.9

inhibition of aggregation recorded for this compound, `C=C(C)COc1ccc(-c2nc(N)ncc2Oc2ccccc2OCC)c(O)c1` , is -19.9

inhibition of aggregation recorded for this compound, `Cc1nc2ccccc2c(=O)n1NC(=O)c1c(O)c2c(n(CC(C)C)c1=O)CCCC2` , is 9.9

inhibition of aggregation recorded for this compound, NC(=O)C1(N2CCCCC2)CCN(C2CC(=O)N(Cc3cccs3)C2=O)CC1 (configuration not stated) , is 5.2

inhibition of aggregation recorded for this compound, CC1(c2ccc(OC(F)F)cc2)NC(=O)N(CC(=O)Nc2ccc3c(c2)OCO3)C1=O (configuration not stated) , is -11.2

inhibition of aggregation recorded for this compound, `O=C(COn1nnc2ccc(C(F)(F)F)cc21)Nc1nnc(-c2ccccc2)o1` , is -0.6

inhibition of aggregation recorded for this compound, `S=c1nc(C2CC2)[nH]c2ccccc12` , is -8.3

inhibition of aggregation recorded for this compound, `CCCCn1cnc2c(cnn2-c2ccc(Cl)cc2)c1=O` , is -4.9

inhibition of aggregation recorded for this compound, `Cc1cccc(-n2nnc(C(=O)NCc3ccccc3)c2N)c1` , is -17.4

inhibition of aggregation recorded for this compound, CCOC(=O)C1CCCN(C(=O)CNS(=O)(=O)c2ccc(Br)s2)C1 (configuration not stated) , is -8.6

inhibition of aggregation recorded for this compound, CCC1CCCCN1S(=O)(=O)c1ccc(C(=O)Nc2nnc(-c3cccs3)o2)cc1 (configuration not stated) , is 8.5

inhibition of aggregation recorded for this compound, `COc1cccc2c(=O)c3c(cnn3C)n(C)c12` , is -31.5

inhibition of aggregation recorded for this compound, O=C(Nc1ccc2c(c1)OCO2)C1CCCN1C(=O)Nc1ccccc1F (configuration not stated) , is -11.8

###

measurement.description: inhibitors of TNFa-induced NFkB p65 translocation, primary screen, imaging, HUVEC, MLSMR starter and 10KST1 sets (AID 438);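 further: compound added about 3h40 before a 20 min TNFalpha stimulation; signal is the nuclear over cytoplasmic p65 intensity ratio per well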
condition.set: HUVEC TNFa-induced p65 nuclear translocation; at 2 µM, active compounds read high, 0% TNFa-plus-vehicle, 100% no-TNFa wells
Listed compounds paired with reported inhibition
Provide only the numeric value, understood in %.

• Cc1cc(-c2nc3ncccc3o2)ccc1N = -8.9
• CCC(c1nnnn1CCOC)N(Cc1ccc(C)cc1)Cc1cc2cc(OC)ccc2[nH]c1=O (stereo unspecified) = 1.9
• COC(=O)c1cc(Oc2ccc(C(=O)OC)cc2N)cc(C(=O)OC)c1 = -12.5
• O=C(Nc1ccc2c(c1)OCO2)c1ccc(Br)c(S(=O)(=O)N2CCCC2)c1 = -5.2
• Cc1cc(NC(=O)NC(=O)c2cccc(OC(F)(F)C(F)F)c2)n[nH]1 = -14

inhibition recorded for this compound, `COc1cc(NC(=O)c2ccc(COCC(F)(F)F)o2)cc(OC)c1OC` , is -11.9

###

Listed molecules paired with reported NADPH fluorescence slope
target.of.assay: Voltage-gated potassium channel subunit beta-2 (Rattus norvegicus) (UniProt P62483)
Sequence (P62483 whole entry, looked up): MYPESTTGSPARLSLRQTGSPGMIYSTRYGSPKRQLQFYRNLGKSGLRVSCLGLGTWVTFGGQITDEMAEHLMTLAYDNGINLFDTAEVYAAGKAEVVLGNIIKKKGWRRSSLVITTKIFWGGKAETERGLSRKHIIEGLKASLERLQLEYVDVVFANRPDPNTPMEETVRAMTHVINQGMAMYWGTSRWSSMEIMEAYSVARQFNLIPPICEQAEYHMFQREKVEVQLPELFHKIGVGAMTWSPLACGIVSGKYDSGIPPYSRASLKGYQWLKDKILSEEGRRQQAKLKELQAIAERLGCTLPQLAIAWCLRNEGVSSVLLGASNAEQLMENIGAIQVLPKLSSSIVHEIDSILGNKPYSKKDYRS
measurement.description: enhancers of rat Kvbeta2 NADPH turnover – biochemical, NADPH fluorescence, primary screen (AID 623);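 further: fluorescence intensity change per second fitted from 20 to 320 s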
condition.set: Recombinant KvBeta, NADPH fluorescence decrease slope, 10 min; at 10 µM; active compounds read low
Keep the answer to the number alone.

Record `CCOC(=O)C1CCN(Cc2ccc(C(=O)OC)cc2)CC1` has Voltage-gated potassium channel subunit beta-2 (Rattus norvegicus) (UniProt P62483) NADPH fluorescence slope equal to -4.2e-05

Record `CCS(=O)(=O)c1nc2ccccc2n1CC(=O)N1CCOCC1` has Voltage-gated potassium channel subunit beta-2 (Rattus norvegicus) (UniProt P62483) NADPH fluorescence slope equal to -3e-05

Record `Cc1ccc(NC(=O)Nc2ccc3c(c2)N(C)C(=O)CS3)nc1` has Voltage-gated potassium channel subunit beta-2 (Rattus norvegicus) (UniProt P62483) NADPH fluorescence slope equal to 6.1e-05

Record `CCOc1ccccc1N1CCN(c2nc(N)c(C#N)c(CC#N)c2C#N)CC1` has Voltage-gated potassium channel subunit beta-2 (Rattus norvegicus) (UniProt P62483) NADPH fluorescence slope equal to -1e-05

Record `O=C(CCCCCn1c(SCc2ccncc2)nc2ccccc2c1=O)NCc1ccco1` has Voltage-gated potassium channel subunit beta-2 (Rattus norvegicus) (UniProt P62483) NADPH fluorescence slope equal to -1.1e-05

Record COCCN1C(=O)C(=O)/C(=C(/O)c2cccc(OC)c2)C1c1ccncc1 (stereo unspecified) has Voltage-gated potassium channel subunit beta-2 (Rattus norvegicus) (UniProt P62483) NADPH fluorescence slope equal to -8.8e-06

Record `O=C(CCN1CCc2ccccc21)c1ccc2c(c1)OCCO2` has Voltage-gated potassium channel subunit beta-2 (Rattus norvegicus) (UniProt P62483) NADPH fluorescence slope equal to -2.2e-05

Record CC(NC(=O)c1ccccc1NC(=O)c1ccco1)C(=O)O (stereo unspecified) has Voltage-gated potassium channel subunit beta-2 (Rattus norvegicus) (UniProt P62483) NADPH fluorescence slope equal to -5.5e-05

Record CC(CN1CCOCC1)(NS(=O)(=O)c1ccccc1)c1ccccc1 (stereo unspecified) has Voltage-gated potassium channel subunit beta-2 (Rattus norvegicus) (UniProt P62483) NADPH fluorescence slope equal to -4.5e-06
